assay: Biodistribution studies; type: in vivo, mice; conditions: athymic nude Foxn1^nu, mouse, in vivo, iv, 1 MBq, total radioactivity, Tumor-to-organ uptake ratio Tumor/Muscles
*1 amine or outer side, *2 acyl side, *3 side chain or, on linkers, in order; H or OH if unused. Where a SMILES comes first, the peptide text is derived from it. Bridges are numbered along the chain shown (N, C = ends). [ ]: non-standard residue; d: D form. The star is where a group is joined. NODAGA = O=C(O)CN1CCN(CC(=O)O)CCN(C(CCC(=O)*)C(=O)O)CC1; X1 = NC(=O)Nc1ccc(CC(N[*:1])C(=O)[*:2])cc1; Phe(4-Cl) = N[CH](Cc1ccc(Cl)cc1)C(=O)O
property: tissue to tissue ratio at 4 h
Field format: numeric only.

### Prompt Which tissue to tissue ratio at 4 h value is on record for CC(O)C1NC(=O)C(CCCCN)NC(=O)C(Cc2ccc(NC(N)=O)cc2)NC(=O)C(Cc2ccc(O)cc2)NC(=O)C(NC(=O)C(Cc2ccc(Cl)cc2)NC(=O)CCC(C(=O)O)N2CCN(CC(=O)O)CCN(CC(=O)O)CC2)CSSCC(C(=O)NC(Cc2ccc(O)cc2)C(N)=O)NC1=O (stereo not shown) [[^61Cu]Cu-NODAGA-LM3, metal not drawn] ({NODAGA}-[Phe(4-Cl)]CY[X1]KTCY-NH2; disulfide 2-7; configuration not given here) ?
### Response 185
